Assay: Selectivity index, ratio of CC50 for human MCF10A cells to IC50 for human MCF7 cells
Assay type: toxicity
Conditions: MCF10A cells and MCF7 cells, read-out: Ratio CC50/IC50
Each record here notes measured selectivity ratio.

structureAsSmiles: COc1ccc(C(=O)C=CNc2cc(-c3ccccc3)nn2-c2ccccc2)cc1
selectivity ratio: 13.1

structureAsSmiles: COc1ccc(-c2nc3c(c(-c4ccccc4)nn3-c3ccccc3)c(-c3ccc(N4CCOCC4)cc3)c2C#N)cc1
selectivity ratio: 59.9

structureAsSmiles: Fc1ccc(-c2ccnc3c2c(-c2ccccc2)nn3-c2ccccc2)cc1
selectivity ratio: 18

###

Assay: Cytotoxicity against human THLE2 cells assessed as reduction in cell viability by MTT assay
Format: cell-based, THLE-2
assayReadout: CC50 (µM)

molecule: N#Cc1c(-c2ccc(Cl)cc2)nc2c(c(-c3ccccc3)nn2-c2ccccc2)c1-c1ccc(N2CCCCC2)cc1
reportedMeasurement: 12.5
//
molecule: O=C(C=CNc1cc(-c2ccccc2)nn1-c1ccccc1)c1ccccc1
reportedMeasurement: 53.4
//
molecule: CN1CCN(c2ccc(-c3c(C#N)c(-c4ccccc4)nc4c3c(-c3ccccc3)nn4-c3ccccc3)cc2)CC1
reportedMeasurement: 15.1
//
molecule: COc1ccc(-c2nc3c(c(-c4ccccc4)nn3-c3ccccc3)c(-c3ccc(N4CCN(C)CC4)cc3)c2C#N)cc1
reportedMeasurement: 37.5
//
molecule: COc1cccc2c1C(=O)c1c(O)c3c(c(O)c1C2=O)C[C@@](O)(C(=O)CO)C[C@@H]3O[C@H]1C[C@H](N)[C@H](O)[C@H](C)O1 [DOXORUBICIN]
reportedMeasurement: 12.7
//
molecule: O=C(C=CNc1cc(-c2ccccc2)nn1-c1ccccc1)c1cccs1
reportedMeasurement: 19.9
//
molecule: c1ccc(-c2ccnc3c2c(-c2ccccc2)nn3-c2ccccc2)cc1
reportedMeasurement: 34.2
//
molecule: Fc1ccc(-c2ccnc3c2c(-c2ccccc2)nn3-c2ccccc2)cc1
reportedMeasurement: 19.7
//
molecule: COc1ccc(C(=O)C=CNc2cc(-c3ccccc3)nn2-c2ccccc2)cc1
reportedMeasurement: 35.2

###

Biological target: CDK2/Cyclin A2 (Homo sapiens, UniProt P24941)
Assay: Inhibition of CDK2/Cyclin A2 (unknown origin) after 10 mins by ADP-Glo reagent based assay
pIC50: −log10 of the molar value.

structureAsSmiles: Clc1ccc(-c2ccnc3c2c(-c2ccccc2)nn3-c2ccccc2)cc1
pIC50: 6.41

structureAsSmiles: Fc1ccc(-c2ccnc3c2c(-c2ccccc2)nn3-c2ccccc2)cc1
pIC50: 7.38

structureAsSmiles: CN1CCN(c2ccc(-c3c(C#N)c(-c4ccc(Cl)cc4)nc4c3c(-c3ccccc3)nn4-c3ccccc3)cc2)CC1
pIC50: 6.89

structureAsSmiles: N#Cc1c(-c2ccccc2)nc2c(c(-c3ccccc3)nn2-c2ccccc2)c1-c1ccc(N2CCOCC2)cc1
pIC50: 7.02

structureAsSmiles: COc1ccc(C(=O)C=CNc2cc(-c3ccccc3)nn2-c2ccccc2)cc1
pIC50: 7.38

structureAsSmiles: O=C(C=CNc1cc(-c2ccccc2)nn1-c1ccccc1)c1ccc(Br)cc1
pIC50: 6.29

structureAsSmiles: COc1ccc(-c2nc3c(c(-c4ccccc4)nn3-c3ccccc3)c(-c3ccc(N4CCN(C)CC4)cc3)c2C#N)cc1
pIC50: 7.18

structureAsSmiles: Cc1ccc(C(=O)C=CNc2cc(-c3ccccc3)nn2-c2ccccc2)cc1
pIC50: 7.20

structureAsSmiles: O=C(C=CNc1cc(-c2ccccc2)nn1-c1ccccc1)c1ccccc1
pIC50: 6.50

###

System: MCF7
Test: Antiproliferative activity against human MCF7 cells assessed as inhibition of cell growth after 48 hrs by MTT assay
Format: functional, cell-based
Conditions: MCF7, 48 h
Each record here notes measured log10 of IC50.
assayReadout: log10 of IC50 (log10 of the value in µM)

structureAsSmiles: Fc1ccc(-c2ccnc3c2c(-c2ccccc2)nn3-c2ccccc2)cc1
log10 of IC50: 0.20
//
structureAsSmiles: COc1ccc(-c2ccnc3c2c(-c2ccccc2)nn3-c2ccccc2)cc1
log10 of IC50: 1.46
//
structureAsSmiles: N#Cc1c(-c2ccc(Cl)cc2)nc2c(c(-c3ccccc3)nn2-c2ccccc2)c1-c1ccc(N2CCCCC2)cc1
log10 of IC50: 1.03
//
structureAsSmiles: Cc1ccc(C(=O)C=CNc2cc(-c3ccccc3)nn2-c2ccccc2)cc1
log10 of IC50: 1.48
//
structureAsSmiles: O=C(C=CNc1cc(-c2ccccc2)nn1-c1ccccc1)c1ccc(Br)cc1
log10 of IC50: 1.34
//
structureAsSmiles: Cc1ccc(-c2ccnc3c2c(-c2ccccc2)nn3-c2ccccc2)cc1
log10 of IC50: 0.75
//
structureAsSmiles: O=C(C=CNc1cc(-c2ccccc2)nn1-c1ccccc1)c1ccccc1
log10 of IC50: 0.98
//
structureAsSmiles: N#Cc1c(-c2ccc(Cl)cc2)nc2c(c(-c3ccccc3)nn2-c2ccccc2)c1-c1ccc(N2CCOCC2)cc1
log10 of IC50: 0.56
//
structureAsSmiles: COc1ccc(-c2nc3c(c(-c4ccccc4)nn3-c3ccccc3)c(-c3ccc(N4CCCCC4)cc3)c2C#N)cc1
log10 of IC50: 0.44
//
structureAsSmiles: COc1ccc(C(=O)C=CNc2cc(-c3ccccc3)nn2-c2ccccc2)cc1
log10 of IC50: 0.11
//
structureAsSmiles: COc1ccc(-c2nc3c(c(-c4ccccc4)nn3-c3ccccc3)c(-c3ccc(N4CCN(C)CC4)cc3)c2C#N)cc1
log10 of IC50: 0.42
//
structureAsSmiles: COc1ccc(-c2nc3c(c(-c4ccccc4)nn3-c3ccccc3)c(-c3ccc(N4CCOCC4)cc3)c2C#N)cc1
log10 of IC50: -0.03
//
structureAsSmiles: O=C(C=CNc1cc(-c2ccccc2)nn1-c1ccccc1)c1ccc(Cl)cc1
log10 of IC50: 0.91
//
structureAsSmiles: Brc1ccc(-c2ccnc3c2c(-c2ccccc2)nn3-c2ccccc2)cc1
log10 of IC50: 1.12
//
structureAsSmiles: c1ccc(-c2nn(-c3ccccc3)c3nccc(-c4cccs4)c23)cc1
log10 of IC50: 1.59
//
structureAsSmiles: O=C(C=CNc1cc(-c2ccccc2)nn1-c1ccccc1)c1cccs1
log10 of IC50: 1.19
//
structureAsSmiles: c1ccc(-c2ccnc3c2c(-c2ccccc2)nn3-c2ccccc2)cc1
log10 of IC50: 1.45
//
structureAsSmiles: Clc1ccc(-c2ccnc3c2c(-c2ccccc2)nn3-c2ccccc2)cc1
log10 of IC50: 1.79
//
structureAsSmiles: COc1cccc2c1C(=O)c1c(O)c3c(c(O)c1C2=O)C[C@@](O)(C(=O)CO)C[C@@H]3O[C@H]1C[C@H](N)[C@H](O)[C@H](C)O1
log10 of IC50: 0.27
//
structureAsSmiles: N#Cc1c(-c2ccccc2)nc2c(c(-c3ccccc3)nn2-c2ccccc2)c1-c1ccc(N2CCOCC2)cc1
log10 of IC50: 0.52

###

Each record here notes measured Ki.
Target: Cyclin-dependent kinase 1/cyclin B1 (Homo sapiens, UniProt P06493)
Sequence (P06493 whole entry): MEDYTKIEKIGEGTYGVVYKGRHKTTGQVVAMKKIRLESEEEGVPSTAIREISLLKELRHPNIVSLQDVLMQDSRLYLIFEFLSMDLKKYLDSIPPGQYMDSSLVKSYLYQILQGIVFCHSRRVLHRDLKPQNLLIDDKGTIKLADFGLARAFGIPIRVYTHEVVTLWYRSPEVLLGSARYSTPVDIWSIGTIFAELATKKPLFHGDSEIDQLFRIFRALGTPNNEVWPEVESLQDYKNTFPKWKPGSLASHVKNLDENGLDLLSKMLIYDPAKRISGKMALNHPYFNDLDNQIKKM
Sequence (P14635 whole entry, further chain): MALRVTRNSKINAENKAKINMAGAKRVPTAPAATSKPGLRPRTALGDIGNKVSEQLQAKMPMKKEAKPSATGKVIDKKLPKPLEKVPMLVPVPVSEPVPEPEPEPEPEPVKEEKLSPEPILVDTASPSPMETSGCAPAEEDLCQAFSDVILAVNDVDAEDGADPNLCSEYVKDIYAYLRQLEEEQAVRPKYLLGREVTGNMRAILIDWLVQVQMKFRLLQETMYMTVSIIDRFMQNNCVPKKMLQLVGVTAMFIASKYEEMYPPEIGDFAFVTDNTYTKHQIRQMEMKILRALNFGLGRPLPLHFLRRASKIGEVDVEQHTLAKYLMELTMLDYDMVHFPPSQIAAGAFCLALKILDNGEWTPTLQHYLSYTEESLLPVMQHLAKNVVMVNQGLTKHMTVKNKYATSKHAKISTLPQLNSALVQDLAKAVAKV
Assay: Inhibition of CDK1/cyclin B (unknown origin)

structureAsSmiles: Fc1ccc(-c2ccnc3c2c(-c2ccccc2)nn3-c2ccccc2)cc1
subjectOfTest: Cyclin-dependent kinase 1/cyclin B1 (Homo sapiens, UniProt P06493)
Ki: 823 nM
--
structureAsSmiles: COc1ccc(-c2nc3c(c(-c4ccccc4)nn3-c3ccccc3)c(-c3ccc(N4CCOCC4)cc3)c2C#N)cc1
subjectOfTest: Cyclin-dependent kinase 1/cyclin B1 (Homo sapiens, UniProt P06493)
Ki: 437 nM
--
structureAsSmiles: COc1ccc(-c2nc3c(c(-c4ccccc4)nn3-c3ccccc3)c(-c3ccc(N4CCN(C)CC4)cc3)c2C#N)cc1
subjectOfTest: Cyclin-dependent kinase 1/cyclin B1 (Homo sapiens, UniProt P06493)
Ki: 127 nM
--
structureAsSmiles: COc1ccc(C(=O)C=CNc2cc(-c3ccccc3)nn2-c2ccccc2)cc1
subjectOfTest: Cyclin-dependent kinase 1/cyclin B1 (Homo sapiens, UniProt P06493)
Ki: 581 nM

###

Biological target: Cyclin-dependent kinase 7/ cyclin H (Homo sapiens)
Sequence (P51946 whole entry): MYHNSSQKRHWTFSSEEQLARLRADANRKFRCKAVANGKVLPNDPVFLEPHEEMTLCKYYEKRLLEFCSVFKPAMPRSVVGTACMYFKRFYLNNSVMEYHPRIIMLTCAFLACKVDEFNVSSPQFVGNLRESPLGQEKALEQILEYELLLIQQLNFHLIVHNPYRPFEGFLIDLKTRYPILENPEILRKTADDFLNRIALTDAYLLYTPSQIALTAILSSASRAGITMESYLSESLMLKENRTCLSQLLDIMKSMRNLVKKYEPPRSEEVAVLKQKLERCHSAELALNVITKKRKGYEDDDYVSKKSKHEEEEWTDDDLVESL
Sequence (P50613 whole entry): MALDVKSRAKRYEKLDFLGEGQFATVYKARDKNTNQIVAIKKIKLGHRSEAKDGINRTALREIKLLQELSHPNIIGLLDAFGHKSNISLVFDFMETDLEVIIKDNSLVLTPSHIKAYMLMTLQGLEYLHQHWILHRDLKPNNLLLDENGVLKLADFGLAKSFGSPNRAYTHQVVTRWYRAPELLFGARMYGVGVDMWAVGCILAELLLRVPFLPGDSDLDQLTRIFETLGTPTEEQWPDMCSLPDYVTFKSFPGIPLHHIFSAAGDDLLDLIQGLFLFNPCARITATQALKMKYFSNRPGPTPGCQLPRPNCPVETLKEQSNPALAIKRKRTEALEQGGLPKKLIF
Experiment: Inhibition of CDK7/cyclin H (unknown origin)
pIC50: −log10 of the molar value.
Each record here notes measured pIC50.

structureAsSmiles: COc1ccc(-c2nc3c(c(-c4ccccc4)nn3-c3ccccc3)c(-c3ccc(N4CCOCC4)cc3)c2C#N)cc1
pIC50: 6.50
--
structureAsSmiles: COc1ccc(-c2nc3c(c(-c4ccccc4)nn3-c3ccccc3)c(-c3ccc(N4CCN(C)CC4)cc3)c2C#N)cc1
pIC50: 6.65
--
structureAsSmiles: COc1ccc(C(=O)C=CNc2cc(-c3ccccc3)nn2-c2ccccc2)cc1
pIC50: 6.49
--
structureAsSmiles: Fc1ccc(-c2ccnc3c2c(-c2ccccc2)nn3-c2ccccc2)cc1
pIC50: 5.70

###

Biological target: Cyclin-dependent kinase 7/ cyclin H (Homo sapiens)
Experiment: Inhibition of CDK7/cyclin H (unknown origin)
Each record here notes measured Ki.

structureAsSmiles: COc1ccc(C(=O)C=CNc2cc(-c3ccccc3)nn2-c2ccccc2)cc1
subjectOfTest: Cyclin-dependent kinase 7/ cyclin H (Homo sapiens)
Ki [µM]: 0.208
//
structureAsSmiles: COc1ccc(-c2nc3c(c(-c4ccccc4)nn3-c3ccccc3)c(-c3ccc(N4CCOCC4)cc3)c2C#N)cc1
subjectOfTest: Cyclin-dependent kinase 7/ cyclin H (Homo sapiens)
Ki [µM]: 0.203
//
structureAsSmiles: COc1ccc(-c2nc3c(c(-c4ccccc4)nn3-c3ccccc3)c(-c3ccc(N4CCN(C)CC4)cc3)c2C#N)cc1
subjectOfTest: Cyclin-dependent kinase 7/ cyclin H (Homo sapiens)
Ki [µM]: 0.144
//
structureAsSmiles: Fc1ccc(-c2ccnc3c2c(-c2ccccc2)nn3-c2ccccc2)cc1
subjectOfTest: Cyclin-dependent kinase 7/ cyclin H (Homo sapiens)
Ki [µM]: 1.27
